# Test system: SF-539
# test-protocol: NCI tumour cell line growth inhibition, 48 h
Activity calls are given as the source filed them. Cut-off read from the data, not from the text of the source: active = GI50 up to about 1.1 µM and inactive = higher.
attribute-measured: GI50

smiles-text	GI50
COc1cc(C=O)c(-c2cc(OC)c(OC)cc2C=O)cc1OC	> 100 µM (inactive)
O=c1cc(-c2ccccc2)[nH]c2c(F)ccc(F)c12	52.8 µM (inactive)
O=C(Nc1nccs1)c1c(O)nc2sccn2c1=O	> 10 µM (inactive)

The value of GI50 measured for the compound COC(=O)Oc1nn(C(=O)OC)c(=O)c2ccccc12 turned out to be 61.8 µM (inactive)

Value of GI50 reported for the compound CCOC(=O)c1cc2c(C(=O)c3ccc([N+](=O)[O-])cc3)c(C(C)=O)ccc2[nH]1 is 17.8 µM (inactive)

GI50 recorded for this compound, COc1ccc(/C=C2\N=C(N3CCOCC3)NC2=O)cc1 , is > 100 µM (inactive)
